target: T1, hCD71-Nluc fusion protein (human, UniProt P02786 1-760); test: nanoBRET competition, tracer BCY17871-1598988 60 nM, HEK293 hCD71-Nluc membranes
T1 construct: whole, on cells; Used as crude membrane fractions of HEK293 cells stably expressing hCD71-Nluc; also called human transferrin receptor, CD71, fused to NanoLuc; not shown: NanoLuc (ProMega) luciferase joined through its N-terminal Val
T1 sequence (P02786 other isoform, or with tags, fused parts or gaps): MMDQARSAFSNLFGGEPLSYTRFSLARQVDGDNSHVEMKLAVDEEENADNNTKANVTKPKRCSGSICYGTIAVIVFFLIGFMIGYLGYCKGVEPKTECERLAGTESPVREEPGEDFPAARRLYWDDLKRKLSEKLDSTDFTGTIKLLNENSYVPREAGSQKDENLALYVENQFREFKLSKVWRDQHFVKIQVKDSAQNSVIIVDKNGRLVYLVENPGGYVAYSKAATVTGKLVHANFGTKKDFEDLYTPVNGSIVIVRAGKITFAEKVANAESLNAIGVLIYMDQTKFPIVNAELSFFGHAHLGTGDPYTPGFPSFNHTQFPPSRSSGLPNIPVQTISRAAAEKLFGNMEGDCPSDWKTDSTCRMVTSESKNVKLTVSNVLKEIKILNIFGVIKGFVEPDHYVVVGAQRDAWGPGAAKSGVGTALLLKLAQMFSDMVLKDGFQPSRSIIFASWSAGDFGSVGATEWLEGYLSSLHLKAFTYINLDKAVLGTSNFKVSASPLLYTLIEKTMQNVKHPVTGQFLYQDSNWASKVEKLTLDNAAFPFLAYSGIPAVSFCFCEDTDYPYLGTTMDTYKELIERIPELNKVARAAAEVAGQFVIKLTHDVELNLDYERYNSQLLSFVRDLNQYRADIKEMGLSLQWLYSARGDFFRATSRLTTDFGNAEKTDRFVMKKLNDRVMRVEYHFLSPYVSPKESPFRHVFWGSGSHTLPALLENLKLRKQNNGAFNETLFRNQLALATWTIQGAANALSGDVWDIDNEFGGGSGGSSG
Starred links: 1 amine or outer side, 2 acyl side, 3 side chain; linkers in the order of their positions; H or OH if unused. Positions of bridges follow the written chain, without caps; N, C: chain ends. Non-standard residues stand in square brackets, D forms with d. TATB = O=C(C[*:1])N1CN(C(=O)C[*:2])CN(C(=O)C[*:3])C1; Lys(N3) = [N-]=[N+]=NCCCC[C@H](N)C(=O)O
As shown below, each of these binders has a reported Ki value.
Report the figure in nM without appending any unit label.

binder	Ki / nM
CSPDAHLGCISYCEXWX (not fully specified; as printed CSPDAHLGCISYCE[dP]W[K(N3)]: N-terminal acetyl; C-terminal amide; three Cys bound to TATB scaffold; [dP] D-proline at 15; [K(N3)] 6-azido lysine at 17 joined via BCN linker to oligonucleotide 1590463, also called Compound No. 1590463 conjugated to BCY17890) [1590463-BCY17890]	17
CSPDAHLGCISYCEXWX (not fully specified; as printed CSPDAHLGCISYCE[Pip]W[K(N3)]: N-terminal acetyl; C-terminal amide; three Cys bound to TATB scaffold; [Pip] pipecolic acid at 15; [K(N3)] 6-azido lysine at 17 joined via BCN linker to oligonucleotide 1590463, also called Compound No. 1590463 conjugated to BCY17894) [1590463-BCY17894]	8
CPXDAYLGCXSYCX (not fully specified; as printed CP[HyP]DAYLGC[tBuGly]SYC[K(N3)]: N-terminal acetyl; C-terminal amide; three Cys bound to TATB scaffold; [HyP] 4-trans-hydroxy-L-proline at 3; [tBuGly] t-butyl glycine at 10; [K(N3)] 6-azido lysine at 14 joined via BCN linker to oligonucleotide 1590463, also called Compound No. 1590463 conjugated to BCY17896) [1590463-BCY17896]	2
Ac-CS[Lys(N3)]DAHLGCISYC-NH2 (linker 1-9-13 via TATB; not fully specified (residue 3); printed as CS[K(N3)]DAHLGCISYC; also: azide of K(N3) in loop clicked via BCN linker to oligonucleotide 1590463, also called Compound No. 1590463 conjugated to BCY17904) [1590463-BCY17904]	31

Measured Ki, CSPDAHLGCISYCEXWX (not fully specified; as printed CSPDAHLGCISYCE[Aze]W[K(N3)]: N-terminal acetyl; C-terminal amide; three Cys bound to TATB scaffold; [Aze] azetidine at 15; [K(N3)] 6-azido lysine at 17 joined via BCN linker to oligonucleotide 1590463, also called Compound No. 1590463 conjugated to BCY17892) [1590463-BCY17892] : 11

Measured Ki, NXNCSPDAHLGCISYCX (not fully specified; as printed N[dY]NCSPDAHLGCISYC[K(N3)]: N-terminal acetyl; C-terminal amide; three Cys bound to TATB scaffold; [dY] D-tyrosine at 2; [K(N3)] 6-azido lysine at 17 joined via BCN linker to oligonucleotide 1590463, also called Compound No. 1590463 conjugated to BCY17882) [1590463-BCY17882] : 23

Measured Ki, NWNCPXDAYLGCXSYCX (not fully specified; as printed NWNCP[HyP]DAYLGC[tBuGly]SYC[K(N3)]: N-terminal acetyl; C-terminal amide; three Cys bound to TATB scaffold; [HyP] 4-trans-hydroxy-L-proline at 6; [tBuGly] t-butyl glycine at 13; [K(N3)] 6-azido lysine at 17 joined via BCN linker to oligonucleotide 1590463, also called Compound No. 1590463 conjugated to BCY17899) [1590463-BCY17899] : 4
